Listing of recorded melting point by entry.

Known melting point results, listed for orientation:
CCOC(=O)n1nc(-c2ccncc2)n(-c2ccccc2)c1=S; 231 to 232 °C
CN(C)Cn1nc(-c2ccncc2)n(-c2ccccc2)c1=S; 173 to 174 °C
OCn1nc(-c2ccncc2)n(-c2ccccc2)c1=S; 277 to 278 °C

Moving on to another compound below.
The compound identified as `CN(CCO)Cn1nc(-c2ccncc2)n(-c2ccccc2)c1=S` registered its melting point at 173 to 174 °C

====

- target_system: ovine COX-2 (Ovis aries, UniProt P79208)
- Construct: purchased Cayman Chemicals, USA
- Sequence (P79208 17-603): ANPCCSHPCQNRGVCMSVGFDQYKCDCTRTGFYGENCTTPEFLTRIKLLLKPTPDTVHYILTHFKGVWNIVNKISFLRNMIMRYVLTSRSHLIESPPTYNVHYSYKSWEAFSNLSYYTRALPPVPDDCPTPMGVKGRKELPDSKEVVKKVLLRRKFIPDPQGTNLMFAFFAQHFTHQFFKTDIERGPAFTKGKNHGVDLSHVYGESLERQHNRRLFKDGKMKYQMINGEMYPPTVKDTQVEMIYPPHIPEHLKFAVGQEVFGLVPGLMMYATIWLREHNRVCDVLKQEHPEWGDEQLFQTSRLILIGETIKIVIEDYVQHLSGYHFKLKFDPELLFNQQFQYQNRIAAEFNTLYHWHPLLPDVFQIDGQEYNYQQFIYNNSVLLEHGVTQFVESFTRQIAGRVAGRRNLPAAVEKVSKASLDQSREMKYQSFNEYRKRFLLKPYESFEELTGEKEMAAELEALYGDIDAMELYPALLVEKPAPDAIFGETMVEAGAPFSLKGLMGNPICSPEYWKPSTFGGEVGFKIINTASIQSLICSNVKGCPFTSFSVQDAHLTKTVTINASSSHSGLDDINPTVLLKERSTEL
- protocol_text: In vitro COX inhibition assay, colorimetric COX (ovine) inhibitor screening kit, COX-2
- Type: biochemical
- measurement_conditions: ovine COX-2, colorimetric kit
- Protocol: Inhibition of the enzymes was determined with the colorimetric COX (ovine) inhibitor screening assay. In Vitro COX Inhibition Assay The final compounds were evaluated for their ability to inhibit ovine COX-1 and COX-2 enzymes [50% percent inhibition is expressed in molar concentration […]] […] Inhibition of the enzymes was determined with the colorimetric COX (ovine) inhibitor screening assay kit (Cayman Chemicals, USA) using ELISA reader.
reported_property: IC50 (nM)

[A] S=c1n(CN2CCCC2)nc(-c2ccncc2)n1-c1ccccc1
[B] S=c1n(CNc2ccc(Br)cc2)nc(-c2ccncc2)n1-c1ccccc1
[C] CN(CCO)Cn1nc(-c2ccncc2)n(-c2ccccc2)c1=S
[D] CCOC(=O)n1nc(-c2ccncc2)n(-c2ccccc2)c1=S
Sort the entries above numerically by IC50, high end first. Labels, requested order.
D, B, C, A
(D: 7.8 nM, B: 3.9 nM, C: 2.1 nM, A: 0.9 nM)

[P] CN(C)Cn1nc(-c2ccncc2)n(-c2ccccc2)c1=S
[Q] S=c1n(CNCc2ccc(Cl)cc2)nc(-c2ccncc2)n1-c1ccccc1
Lower value for measured IC50? Options: P , Q Respond with the label that goes with your answer.
P
(P: 0.9 nM, Q: 6.8 nM)

====

- target_system: ovine COX-1 (Ovis aries)
- Construct: purchased Cayman Chemicals, USA
- Sequence (P05979 25-600): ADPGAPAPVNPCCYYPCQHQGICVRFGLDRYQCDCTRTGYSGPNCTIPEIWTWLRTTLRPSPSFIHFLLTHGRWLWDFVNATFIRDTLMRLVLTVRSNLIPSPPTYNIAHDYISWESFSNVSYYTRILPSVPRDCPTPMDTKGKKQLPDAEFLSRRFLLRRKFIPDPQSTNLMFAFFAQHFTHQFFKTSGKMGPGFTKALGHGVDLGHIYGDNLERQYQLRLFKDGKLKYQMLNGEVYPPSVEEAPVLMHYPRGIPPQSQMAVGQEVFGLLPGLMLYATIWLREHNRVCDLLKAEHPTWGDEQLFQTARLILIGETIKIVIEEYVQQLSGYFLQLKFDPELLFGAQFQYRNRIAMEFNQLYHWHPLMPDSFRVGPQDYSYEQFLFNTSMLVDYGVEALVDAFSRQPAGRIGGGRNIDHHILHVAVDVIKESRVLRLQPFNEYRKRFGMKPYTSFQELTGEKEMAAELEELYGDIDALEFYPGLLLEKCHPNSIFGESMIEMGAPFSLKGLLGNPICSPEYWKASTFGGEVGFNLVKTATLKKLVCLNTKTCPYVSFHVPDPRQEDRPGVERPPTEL
- protocol_text: In vitro COX inhibition assay, colorimetric COX (ovine) inhibitor screening kit, COX-1
- Format: biochemical
- measurement_conditions: ovine COX-1, colorimetric kit
reported_property: IC50 (nM)

As a guide, the following entries are already answered.
CCCC(C)Sc1nnc(-c2ccncc2)n1-c1ccccc1 (centres unmarked) [Compound 4]; 3.7
C=CCCCSc1nnc(-c2ccncc2)n1-c1ccccc1 [Compound 5]; 4.4
CCN(CC)Cn1nc(-c2ccncc2)n(-c2ccccc2)c1=S [Compound 9]; 3.8
C#CCSc1nnc(-c2ccncc2)n1-c1ccccc1 [Compound 3]; 7.5
OCn1nc(-c2ccncc2)n(-c2ccccc2)c1=S [Compound 7]; 3.5
S=c1n(CNc2ccc(Br)cc2)nc(-c2ccncc2)n1-c1ccccc1 [Compound 12]; 6.4
CCOC(=O)n1nc(-c2ccncc2)n(-c2ccccc2)c1=S [Compound 6]; 9.2
S=c1n(CN2CCCC2)nc(-c2ccncc2)n1-c1ccccc1 [Compound 10]; 3.7

[A] CN(CCO)Cn1nc(-c2ccncc2)n(-c2ccccc2)c1=S [Compound 11]
[B] S=c1n(CNCc2ccc(Cl)cc2)nc(-c2ccncc2)n1-c1ccccc1 [Compound 13]
[C] CN(C)Cn1nc(-c2ccncc2)n(-c2ccccc2)c1=S [Compound 8]
Sort the compounds on IC50; start with the lowest figure. # list labels per requested ordering
C, A, B
(C: 3.1 nM, A: 4.5 nM, B: 8.7 nM)

====

- System: carrageenan-induced rat paw edema
- protocol_text: In vivo carrageenan induced rat paw edema assay
- Parameters: species or system rat (male Sprague-Dawley)
- measurement_conditions: compound intravenously in DMSO one hour before carrageenan, at 1 hr, vs vehicle control = 0%
reported_property: AI activity % inhibition at 1 hr (carrageenan paw edema) (%)
Express the result in % but write the number alone.

// known answers, use as guide
Cc1ccc(-c2cc(C(F)(F)F)nn2-c2ccc(S(N)(=O)=O)cc2)cc1 [Celecoxib, reference compound]; 50
OCn1nc(-c2ccncc2)n(-c2ccccc2)c1=S; 25
S=c1n(CN2CCCC2)nc(-c2ccncc2)n1-c1ccccc1; 62
CN(C)Cn1nc(-c2ccncc2)n(-c2ccccc2)c1=S; 51

AI activity % inhibition at 1 hr (carrageenan paw edema) in this record for `S=c1n(CNCc2ccc(Cl)cc2)nc(-c2ccncc2)n1-c1ccccc1` : 16

The measured AI activity % inhibition at 1 hr (carrageenan paw edema) associated with `CCOC(=O)n1nc(-c2ccncc2)n(-c2ccccc2)c1=S` reads 0.0

For this molecule ( `S=c1n(CNc2ccc(Br)cc2)nc(-c2ccncc2)n1-c1ccccc1` ), measured AI activity % inhibition at 1 hr (carrageenan paw edema) is 12.5

Kindly note the recorded AI activity % inhibition at 1 hr (carrageenan paw edema) for `C#CCSc1nnc(-c2ccncc2)n1-c1ccccc1` , which is 10

====

- target_system: ovine COX-2 (Ovis aries)
- Construct: purchased Cayman Chemicals, USA
- protocol_text: In vitro COX inhibition assay, colorimetric COX (ovine) inhibitor screening kit, COX-2
- Assay type: biochemical
- measurement_conditions: ovine COX-2, colorimetric kit
reported_property: IC50 (nM)

CCN(CC)Cn1nc(-c2ccncc2)n(-c2ccccc2)c1=S; 1.1
C=CCCCSc1nnc(-c2ccncc2)n1-c1ccccc1; 2.6
C#CCSc1nnc(-c2ccncc2)n1-c1ccccc1; 5.3
CCCC(C)Sc1nnc(-c2ccncc2)n1-c1ccccc1 (centres unmarked); 1.4
OCn1nc(-c2ccncc2)n(-c2ccccc2)c1=S; 0.8
